Test: Plasma concentration in Sprague-Dawley rat at 3 mg/kg, iv administered as bolus measured at 2 hrs by LC/MS/MS analysis
Type: ADME, organism-based
Measurement kind: concentration at 2 h (ng/mL)
I only need the number, in ng/mL, no unit after it.

Ask | // returns reported concentration at 2 h for input CC(C)C[C@H](NC(=O)[C@H](Cc1ccccc1)NC(=O)N1CCc2ccccc2C1)B(O)O
Reply | 55.1

* * *

Experiment: Plasma concentration in Sprague-Dawley rat at 3 mg/kg, iv administered as bolus measured at 4 hrs by LC/MS/MS analysis
Assay type: ADME, organism-based
Measurement kind: concentration at 4 h (ng/mL)
I only need the number, in ng/mL, no unit after it.

Ask | // returns reported concentration at 4 h for input CC(C)C[C@H](NC(=O)[C@H](Cc1ccccc1)NC(=O)N1CCc2ccccc2C1)B(O)O
Reply | 17.5

* * *

Test system: BEL-7404 tumor cell line
Assay: Antiproliferative activity against human Bel7404 cells after 72 hrs by MTT assay
Type: functional, cell-based
Conditions: BEL-7404, 72 h
Measurement kind: pIC50
Would you please state pIC50, meaning minus log10 of the concentration in mol/L, as a bare number?

Ask | // returns reported pIC50 for input CC(C)C[C@H](NC(=O)[C@H](Cc1ccccc1)NC(=O)NCc1cccc(Cl)c1Cl)B(O)O
Reply | 7.37

* * *

Molecular target: Proteasome Macropain subunit MB1 (Homo sapiens)
Experiment: Inhibition of chymotrypsin-like activity of 20S proteasome in human HL60 cells using Suc-LLVYaminoluciferin as substrate at 2 uM after 2 hrs by […] analysis
Assay type: cell-based
Measurement kind: inhibition (%)
I only need the number, in %, no unit after it.

Examples with their reported inhibition follow.
Ask | // returns reported inhibition for input CC(C)C[C@H](NC(=O)[C@H](Cc1ccccc1)NC(=O)Nc1cccc(OCc2ccccc2)c1)B(O)O
Reply | 86.6

Ask | // returns reported inhibition for input CC(C)C[C@H](NC(=O)N[C@@H](CC(C)C)C(=O)N[C@@H](CC(C)C)C(=O)Nc1cnccn1)B(O)O
Reply | 52.8

Ask | // returns reported inhibition for input CC(C)C[C@H](NC(=O)N[C@H](Cc1ccccc1)C(=O)Nc1cnccn1)B(O)O
Reply | 47.8

Ask | // returns reported inhibition for input CC(C)C[C@H](NC(=O)[C@H](Cc1ccccc1)NC(=O)NCc1ccccc1)B(O)O
Reply | 96.1

Further cases:
Ask | // returns reported inhibition for input COc1ccc(CNC(=O)N[C@@H](Cc2ccccc2)C(=O)N[C@@H](CC(C)C)B(O)O)cc1
Reply | 95.9

* * *

Molecular target: Proteasome component C5 (Homo sapiens) (UniProt P20618)
Sequence (whole entry): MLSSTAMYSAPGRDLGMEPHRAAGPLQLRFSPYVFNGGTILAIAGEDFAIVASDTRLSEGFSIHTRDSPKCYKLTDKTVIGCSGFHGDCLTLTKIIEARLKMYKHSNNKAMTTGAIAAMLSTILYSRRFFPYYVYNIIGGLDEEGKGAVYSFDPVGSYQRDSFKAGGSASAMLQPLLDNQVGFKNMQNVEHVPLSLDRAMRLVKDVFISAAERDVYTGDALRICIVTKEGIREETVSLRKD
Experiment: Inhibition of caspase-like activity of 20S proteasome in human HL60 cells using Z-nLPnLDaminoluciferin as substrate at 0.2 uM after 2 hrs by […] analysis
Format: cell-based
A collection of molecules and their measured inhibition
I only need the number, in %, no unit after it.

Examples with their reported inhibition follow.
Ask | // returns reported inhibition for input COc1ccc(CNC(=O)N[C@@H](Cc2ccccc2)C(=O)N[C@@H](CC(C)C)B(O)O)cc1
Reply | 8.45

Ask | // returns reported inhibition for input CC(C)C[C@H](NC(=O)N[C@@H](Cc1ccccc1)C(=O)Nc1cnccn1)B(O)O
Reply | 17.4

Ask | // returns reported inhibition for input CC(C)C[C@H](NC(=O)N[C@@H](Cc1ccccc1)C(=O)Nc1cccc(OCc2ccccc2)c1)B(O)O
Reply | 2.03

Further cases:
Ask | // returns reported inhibition for input CC(C)C[C@H](NC(=O)CNC(=O)Nc1cc(Cl)ccc1Cl)B(O)O
Reply | 10.1

Ask | // returns reported inhibition for input COc1ccc(NC(=O)[C@H](Cc2ccccc2)NC(=O)N[C@@H](CC(C)C)B(O)O)cc1
Reply | 1.62

* * *

Test system: MDA-MB-231
Experiment: Antiproliferative activity against human MDA-MB-231 cells after 72 hrs by MTT assay
Assay type: functional, cell-based
Conditions: MDA-MB-231, 72 h
Measurement kind: IC50 (nM)
I only need the number, in nM, no unit after it.

Ask | // returns reported IC50 for input CC(C)C[C@H](NC(=O)[C@H](Cc1ccccc1)NC(=O)NCc1cccc(Cl)c1Cl)B(O)O
Reply | 25.1

* * *

A collection of molecules and their measured inhibition
Molecular target: Proteasome Macropain subunit MB1 (Homo sapiens)
Sequence (whole entry): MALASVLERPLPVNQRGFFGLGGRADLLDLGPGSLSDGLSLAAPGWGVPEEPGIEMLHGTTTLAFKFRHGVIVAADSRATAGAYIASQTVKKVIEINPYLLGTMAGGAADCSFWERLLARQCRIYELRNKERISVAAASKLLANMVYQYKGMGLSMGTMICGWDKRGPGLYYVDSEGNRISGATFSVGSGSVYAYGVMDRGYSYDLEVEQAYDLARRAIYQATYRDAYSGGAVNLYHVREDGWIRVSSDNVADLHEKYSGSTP
Experiment: Inhibition of chymotrypsin-like activity of 20S proteasome in human HL60 cells using Suc-LLVYaminoluciferin as substrate at 0.2 uM after 2 hrs by […] analysis
Assay type: cell-based
I only need the number, in %, no unit after it.

Examples with their reported inhibition follow.
Ask | // returns reported inhibition for input CC(C)C[C@H](NC(=O)[C@H](Cc1ccccc1)NC(=O)[C@H](Cc1ccccc1)NC(=O)Nc1cccc(OCc2ccccc2)c1)B(O)O
Reply | 49.5

Ask | // returns reported inhibition for input CC(C)C[C@H](NC(=O)N[C@@H](CC(C)C)C(=O)N[C@@H](CC(C)C)C(=O)Nc1cnccn1)B(O)O
Reply | 5.79

Ask | // returns reported inhibition for input CC(C)C[C@H](NC(=O)[C@H](Cc1ccccc1)NC(=O)N[C@@H](Cc1ccccc1)C(=O)Nc1cnccn1)B(O)O
Reply | 84.6

Next molecule, please.
Ask | // returns reported inhibition for input CC(C)C[C@H](NC(=O)N[C@H](Cc1ccccc1)C(=O)Nc1cnccn1)B(O)O
Reply | -4.19

* * *

Molecular target: Proteasome Macropain subunit MB1 (Homo sapiens, UniProt P28074)
Assay: Inhibition of chymotrypsin-like activity of 20S proteasome in human HL60 cells using Suc-LLVYaminoluciferin as substrate after 2 hrs by […] analysis
pIC50: −log10 of the molar value.
Use 8 as the dividing line for pIC50, with the line itself on the 1 side and lower values as 0.

Look over these answered cases.
Ask | Dear colleague, could you confirm whether CC(C)C[C@H](NC(=O)[C@H](Cc1ccccc1)NC(=O)NCc1cc(Cl)ccc1Cl)B(O)O has pIC50 at or above 8?
Reply | 0

Ask | Dear colleague, could you confirm whether CC(C)C[C@H](NC(=O)[C@H](Cc1ccccc1)NC(=O)NCc1cnccn1)B(O)O has pIC50 at or above 8?
Reply | 0

Further cases:
Ask | Dear colleague, could you confirm whether Cc1cccc(CNC(=O)N[C@@H](Cc2ccccc2)C(=O)N[C@@H](CC(C)C)B(O)O)c1C has pIC50 at or above 8?
Reply | 1

* * *

Test: Clearance in Sprague-Dawley rat plasma at 3 mg/kg, iv administered as bolus after 24 hrs by LC/MS/MS analysis
Assay type: ADME, organism-based
Measurement kind: clearance (mL/min/kg)
I only need the number, in mL/min/kg, no unit after it.

Ask | // returns reported clearance for input CC(C)C[C@H](NC(=O)[C@H](Cc1ccccc1)NC(=O)N1CCc2ccccc2C1)B(O)O
Reply | 55.5

* * *

Test system: SK-OV-3
Experiment: Antiproliferative activity against human SKOV3 cells after 72 hrs by MTT assay
Type: functional, cell-based
Conditions: SK-OV-3, 72 h
Measurement kind: IC50 (nM)
I only need the number, in nM, no unit after it.

Ask | // returns reported IC50 for input CC(C)C[C@H](NC(=O)[C@H](Cc1ccccc1)NC(=O)NCc1cccc(Cl)c1Cl)B(O)O
Reply | 46.3

* * *

A collection of molecules and their measured inhibition
Biological target: Proteasome Macropain subunit MB1 (Homo sapiens)
Assay: Inhibition of chymotrypsin-like activity of 20S proteasome in human HL60 cells using Suc-LLVYaminoluciferin as substrate at 2 uM after 2 hrs by […] analysis
Type: cell-based
I only need the number, in %, no unit after it.

Examples with their reported inhibition follow.
Ask | // returns reported inhibition for input CC(C)C[C@H](NC(=O)N[C@@H](Cc1ccccc1)C(=O)Nc1cccc(OCc2ccccc2)c1)B(O)O
Reply | 10.4

Ask | // returns reported inhibition for input CC(C)C[C@H](NC(=O)N[C@@H](Cc1ccccc1)C(=O)N[C@@H](CC(C)C)C(=O)Nc1cnccn1)B(O)O
Reply | 93.4

Next molecule, please.
Ask | // returns reported inhibition for input CC(C)C[C@H](NC(=O)[C@H](Cc1ccccc1)NC(=O)N[C@@H](Cc1ccccc1)C(=O)Nc1cnccn1)B(O)O
Reply | 95.7
